This collection of values is drawn from patent US20260062463A1.

- measured.target: T1, AAV9 (adeno-associated virus 9, Assembled 60-mer capsid of VP1/VP2/VP3 (nested products of one cap gene), amine-coupled to a CM5 chip; the letters give one VP1 subunit only.)
- T1 construct: also called adeno-associated virus serotype 9
- measurement.protocol: SPR, AAV amine-coupled to CM5 chip
endpoint.label: Kd (nM)
// return numeric value only (unit: nM, not printed)

Query string: For the binder A4-C5 (bispecific antibody) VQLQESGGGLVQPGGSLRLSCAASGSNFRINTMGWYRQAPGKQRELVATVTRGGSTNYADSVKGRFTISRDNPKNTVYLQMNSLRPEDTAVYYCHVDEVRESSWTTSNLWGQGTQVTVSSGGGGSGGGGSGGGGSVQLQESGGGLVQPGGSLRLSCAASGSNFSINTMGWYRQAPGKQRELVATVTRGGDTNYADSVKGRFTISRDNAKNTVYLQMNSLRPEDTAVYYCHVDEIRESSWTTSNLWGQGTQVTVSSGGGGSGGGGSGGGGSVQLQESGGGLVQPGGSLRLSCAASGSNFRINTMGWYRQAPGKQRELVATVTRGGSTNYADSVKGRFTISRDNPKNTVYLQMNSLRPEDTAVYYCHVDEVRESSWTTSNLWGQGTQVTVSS , what Kd is on record?
Result string: 1.68

Query string: What measured Kd goes with A4-C7 (bispecific antibody) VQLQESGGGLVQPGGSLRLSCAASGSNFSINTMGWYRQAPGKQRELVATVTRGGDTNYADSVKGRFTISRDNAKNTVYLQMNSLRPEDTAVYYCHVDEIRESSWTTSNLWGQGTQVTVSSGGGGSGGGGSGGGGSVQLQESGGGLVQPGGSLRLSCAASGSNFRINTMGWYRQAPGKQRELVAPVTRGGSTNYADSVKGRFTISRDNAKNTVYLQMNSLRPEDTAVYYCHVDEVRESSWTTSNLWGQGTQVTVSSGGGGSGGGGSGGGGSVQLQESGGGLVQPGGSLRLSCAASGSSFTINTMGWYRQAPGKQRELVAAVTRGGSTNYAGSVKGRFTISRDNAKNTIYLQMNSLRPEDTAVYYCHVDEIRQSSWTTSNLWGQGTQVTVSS ?
Result string: 0.127

Query string: // returns reported Kd for input A4-C6 (bispecific antibody) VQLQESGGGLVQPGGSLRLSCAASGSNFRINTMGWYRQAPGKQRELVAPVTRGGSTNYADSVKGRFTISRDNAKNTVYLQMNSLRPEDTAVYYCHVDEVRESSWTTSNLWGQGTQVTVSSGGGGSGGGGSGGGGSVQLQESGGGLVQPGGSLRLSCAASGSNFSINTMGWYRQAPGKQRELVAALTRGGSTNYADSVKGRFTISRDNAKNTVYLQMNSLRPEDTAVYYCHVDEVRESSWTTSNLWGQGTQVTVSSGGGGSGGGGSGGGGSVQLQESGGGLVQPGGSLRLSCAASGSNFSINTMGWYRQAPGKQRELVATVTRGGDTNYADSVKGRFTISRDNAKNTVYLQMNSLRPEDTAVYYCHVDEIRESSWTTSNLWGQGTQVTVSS
Result string: 0.55

Query string: Look up Kd for this binder: A4-C2 (VHH) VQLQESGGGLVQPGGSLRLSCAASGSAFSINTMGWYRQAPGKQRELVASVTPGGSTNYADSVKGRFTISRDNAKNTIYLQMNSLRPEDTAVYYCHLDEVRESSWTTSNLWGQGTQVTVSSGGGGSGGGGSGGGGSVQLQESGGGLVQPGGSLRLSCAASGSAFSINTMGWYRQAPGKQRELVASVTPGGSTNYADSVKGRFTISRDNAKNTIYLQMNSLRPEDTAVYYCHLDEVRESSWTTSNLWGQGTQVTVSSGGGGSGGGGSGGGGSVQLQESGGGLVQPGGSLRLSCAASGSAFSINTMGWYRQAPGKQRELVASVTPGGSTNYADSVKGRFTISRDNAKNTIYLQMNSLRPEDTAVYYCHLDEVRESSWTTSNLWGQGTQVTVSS
Result string: 0.486
